Just for reference, the supplement of paper PMC11246515 is where these values come from.

- ASSAY_EXPLANATION: total protein half-life in vivo (active degradation + dilution); higher = more stable protein
- CONDITION_SUMMARY: E. coli NCM3722 delta-clpP delta-lon delta-hslV; growth: N-lim chemostat; doubling time 6 h
Cut-off 5 h on total protein half-life in vivo, inclusive. At or above means yes; below means no.

RESIDUE_STRING: MAMHLNENLDDNGEMHDINVTPFIDVMLVLLIIFMVAAPLATVDVKVNLPASTSTPQPRPEKPVYLSVKADNSMFIGNDPVTDETMITALNALTEGKKDTTIFFRADKTVDYETLMKVMDTLHQAGYLKIGLVGEETAKAK [P0ABV2]
CATEGORY_LABEL: no

Q: Form field: total protein half-life in vivo at least 5 h? Entry: MQRETVWLVEDEQGIADTLVYMLQQEGFAVEVFERGLPVLDKARKQVPDVMILDVGLPDISGFELCRQLLALHPALPVLFLTARSEEVDRLLGLEIGADDYVAKPFSPREVCARVRTLLRRVKKFSTPSPVIRIGHFELNEPAAQISWFDTPLALTRYEFLLLKTLLKSPGRVWSRQQLMDSVWEDAQDTYDRTVDTHIKTLRAKLRAINPDLSPINTHRGMGYSLRGL
Result: yes

Q: Form field: total protein half-life in vivo at least 5 h? Entry: MDHRLLEIIACPVCNGKLWYNQEKQELICKLDNLAFPLRDGIPVLLETEARVLTADESKS [P0AAZ7]
Result: yes

Q: Form field: total protein half-life in vivo at least 5 h? Entry: MKTLILFSTRDGQTREIASYLASELKELGIQADVANVHRIEEPQWENYDRVVIGASIRYGHYHSAFQEFVKKHATRLNSMPSAFYSVNLVARKPEKRTPQTNSYARKFLMNSQWRPDRCAVIAGALRYPRYRWYDRFMIKLIMKMSGGETDTRKEVVYTDWEQVANFAREIAHLTDKPTLK [P0ACB4]
Result: yes

Q: Form field: total protein half-life in vivo at least 5 h? Entry: MTTFHSLTVAKVESETRDAVTITFAVPQPLQEAYRFRPGQHLTLKASFDGEELRRCYSICRSYLPGEISVAVKAIEGGRFSRYAREHIRQGMTLEVMVPQGHFGYQPQAERQGRYLAIAAGSGITPMLAIIATTLQTEPESQFTLIYGNRTSQSMMFRQALADLKDKYPQRLQLLCIFSQETLDSDLLHGRIDGEKLQSLGASLINFRLYDEAFICGPAAMMDDAETALKALGMPDKTIHLERFNTPGTRVKRSVNVQSDGQKVTVRQDGRDREIVLNADDESILDAALRQGADLPYACKGGVCATCKCKVLRGKVAMETNYSLEPDELAAGYVLSCQALPLTSDVVVDFDAKGMA
Result: no

Q: Form field: total protein half-life in vivo at least 5 h? Entry: MKITLSKRIGLLAILLPCALALSTTVHAETNKLVIESGDSAQSRQHAAMEKEQWNDTRNLRQKVNKRTEKEWDKADAAFDNRDKCEQSANINAYWEPNTLRCLDRRTGRVITP
Result: yes

Q: Form field: total protein half-life in vivo at least 5 h? Entry: MSESLSWMQTGDTLALSGELDQDVLLPLWEMREEAVKGITCIDLSRVSRVDTGGLALLLHLIDLAKKQGNNVTLQGVNDKVYTLAKLYNLPADVLPR
Result: yes
